Please respond with reported MIC Haemophilus influenzae Spain 7 for every item in the list.
Test system: Haemophilus influenzae Spain 7
experimental protocol: Minimum inhibitory concentration (MIC), liquid dilution test
Assay type: cell-based
run parameters: BHI broth plus 20% bovine serum, 10 μg/ml hemin and 1% Isovitale, 37° C., 18-24 hours, 8-10% CO2, lowest concentration with no visible bacterial growth
Experimental: Determination of the Minimum Inhibitory Concentration (MIC): The MIC is determined in a liquid dilution test. Overnight cultures of the test organisms are diluted to a cell count of 10^5 organisms per ml in Isosensitest medium (Difco, Irvine, USA) and are incubated with dilutions of the test substances (1:2 dilution stages). […]
Answers are plain numbers, in µM.

Lab note: each molecule below needs its MIC Haemophilus influenzae Spain 7 filled in.
1. C[C@@H]1C(=O)NC(=O)[C@H]1C(=O)C(NC(=O)C[C@H](NC(=O)c1ccccn1)c1ccccc1)C1CCCC1 (some centres unmarked) [Example 9]
2. CC(C)[C@H](NC(=O)C[C@H](NC(=O)c1cccc(F)n1)c1ccccc1)C(=O)[C@@H]1C(=O)NC(=O)[C@H]1C [Example 2]
3. C[C@@H]1C(=O)NC(=O)[C@H]1C(=O)[C@@H](NC(=O)C[C@H](NC(=O)c1cc2cc(F)ccc2[nH]1)c1ccccc1)C1CCCC1 [Example 48]
4. COc1ccc(CC(=O)N[C@@H](CC(=O)N[C@H](C(=O)[C@@H]2C(=O)NC(=O)[C@H]2C)C(C)C)c2ccccc2)c(Cl)c1Cl [Example 109]
5. CC(C)[C@H](NC(=O)C[C@H](NC(=O)c1cc(-c2ccccc2)ccn1)c1ccccc1)C(=O)[C@@H]1C(=O)NC(=O)[C@H]1C [Example 6]

Result:
62.5
7.81
15.63
62.5
15.63
